For each of the compounds below, state its pIC50.
Target: EGFR (d746-750) (Homo sapiens, UniProt P00533, DEL746-750)
Sequence (P00533 with tags, fused parts or gaps DEL746-750 limits assumed): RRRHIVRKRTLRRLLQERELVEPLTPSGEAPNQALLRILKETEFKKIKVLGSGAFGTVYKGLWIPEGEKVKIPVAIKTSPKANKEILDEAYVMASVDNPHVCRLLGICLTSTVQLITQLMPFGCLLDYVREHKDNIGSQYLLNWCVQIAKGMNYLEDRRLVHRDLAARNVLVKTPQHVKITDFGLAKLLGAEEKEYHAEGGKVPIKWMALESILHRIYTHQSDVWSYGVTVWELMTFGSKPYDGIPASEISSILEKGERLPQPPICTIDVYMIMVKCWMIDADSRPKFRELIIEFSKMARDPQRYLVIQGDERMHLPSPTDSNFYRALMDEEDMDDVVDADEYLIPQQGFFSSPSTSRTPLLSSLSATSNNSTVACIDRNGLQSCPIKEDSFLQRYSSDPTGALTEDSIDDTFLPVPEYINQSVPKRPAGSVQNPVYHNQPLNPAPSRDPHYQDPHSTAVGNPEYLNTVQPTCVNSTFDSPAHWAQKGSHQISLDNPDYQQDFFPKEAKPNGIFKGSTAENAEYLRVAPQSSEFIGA
Test: EGFR (d746-750) kinase inhibitory activity
Details: ATP 5 μM, kinase reaction 90 minutes
Experimental: Among the materials of the inhibitory activity measurement, the substrate peptide and the kinase protein were obtained as follows. […] Based on the above rates, phosphorylation inhibition rates (%) were calculated for the samples to which various concentrations of the compound solutions were added. […] The inhibitory activities of the compounds of the present invention against EGFR (d746-750) kinase activity were measured. […]
One number for each entry, as −log10 of the molar value.

Example results:
compound | pIC50
C=CC(=O)N[C@@H]1C=C(C)c2c(-c3cnc4ccccc4c3)c3c(N)ncnc3n2C1 [Example 16] | 7.82
C=CC(=O)N[C@@H]1Cn2c(c(-c3cnc4ccccc4c3)c3c(N)ncnc32)C1C (stereo partly shown) [Example 24] | 9.07
C=C1c2c(-c3cnc4ccccc4c3)c3c(N)ncnc3n2C[C@H]1NC(=O)/C=C/CN(C)C [Example 4] | 9.35
C=CC(=O)N[C@H]1C=C(C)c2c(-c3cnc4ccccc4c3)c3c(N)ncnc3n2C1 [Example 14] | 9.72
C=C1c2c(-c3cnc4ccccc4c3)c3c(N)ncnc3n2C[C@H]1NC(=O)/C=C/CN1CCCCC1 [Example 7] | 8.92
C=CC(=O)N(C)[C@@H]1Cn2c(c(-c3cnc4ccccc4c3)c3c(N)ncnc32)C1=C [Example 26] | 8.96
C=CC(=O)N[C@@H]1CC(=C)c2c(-c3cnc4ccccc4c3)c3c(N)ncnc3n2C1 [Example 17] | 7.41
C=CC(=O)N(C)[C@@H]1C=C(C)c2c(-c3cnc4ccccc4c3)c3c(N)ncnc3n2C1 [Example 23] | 9.54

Hi team, please reply with pIC50 for each item in this list.
1. C=CC(=O)N[C@@H]1CCn2c(c(-c3cnc4ccccc4c3)c3c(N)ncnc32)C(=C)C1 [Example 18]
2. C=CC(=O)N[C@H]1Cn2c(c(-c3cnc4ccccc4c3)c3c(N)ncnc32)C1=C [Example 25]

Marked response:
1. 8.35
2. 7.23
